Origin of the recorded values: patent USRE50618E1

reported.conditions: rat, in vivo, 10 mg/kg
readout.type: level at 48 h (ng/mL)
Number only, in ng/mL; omit the unit.

Bench note: what level at 48 h did H-RRRPRPPYLPRPRPPPFFPPRLPPRIPPGFPPRFPPRFP-OH [PR39] show?
30

====

reported.conditions: rat, in vivo, 10 mg/kg
readout.type: level at 24 h (ng/mL)
Number only, in ng/mL; omit the unit.

Bench note: what level at 24 h did H-RRRPRPPYLPRPRPPPFFPPRLPPRIPPGFPPRFPPRFP-OH [PR39] show?
370
